Assay: DNDI: Cytotoxicity against L929 mouse fibroblasts, CYTO-SP, 24 hour
Assay type: toxicity, cell-based
Conditions: mouse, L929 mouse fibroblasts
measurement.type: IC50 at 24 h

# compound, result
rows = [
    ("CCCCCC(C)NCc1coc(-c2ccc3ccccc3c2)n1 (stereo not drawn)", "17 µg/mL"),
    ("CCCCCC(C)NCc1coc(-c2ccc(OC)cc2)n1 (stereo not drawn)", "33 µg/mL"),
    ("CCc1ccc(Oc2ncccc2/C(=N/O)NCc2ccccc2)cc1", "> 50 µg/mL"),
    ("O=C(NC1CCCCC1)c1cccnc1Cl", "> 50 µg/mL"),
    ("COc1ccccc1Oc1ncccc1C(=N)N", "> 50 µg/mL"),
    ("CCCCC[C@@H](C)N(Cc1coc(-c2ccc(Cl)cc2)n1)Cc1coc(-c2ccc(Cl)cc2)n1", "> 50 µg/mL"),
    ("CCCCCC(C)NCc1coc(-c2cccc(F)c2)n1 (stereo not drawn)", "19 µg/mL"),
    ("COc1ccccc1Oc1ncccc1/C(=N/O)NC1CCCC1", "> 50 µg/mL"),
    ("CC1(C)[C@H]2CC[C@@H](CNCc3coc(-c4ccc(Cl)cc4)n3)[C@@H]1C2", "> 50 µg/mL"),
    ("O/N=C(\\NC1CCCCC1)c1cccc(Br)c1", "39 µg/mL"),
    ("Cc1ccc(Oc2nc(C)ccc2/C(=N/O)NC2CCCCC2)c(C)c1", "34 µg/mL"),
    ("CCCCc1ccc(-c2nc(CNC[C@@H]3CC[C@H]4C[C@@H]3C4(C)C)co2)cc1", "> 50 µg/mL"),
    ("CCCC(CCC)NCc1coc(-c2ccc(Cl)cc2)n1", "38.4 µg/mL"),
    ("CC(C)(C)CN/C(=N\\O)c1ccccc1-c1ccccc1", "> 50 µg/mL"),
    ("CC1(C)[C@H]2CC[C@@H](CNCc3coc(-c4ccc(-c5ccccc5)cc4)n3)[C@@H]1C2", "17.6 µg/mL"),
    ("CCc1cccc(N/C(=N/O)c2ccc(OC)cc2)c1", "> 50 µg/mL"),
    ("N#Cc1cccnc1Oc1ccccc1", "> 50 µg/mL"),
    ("O/N=C(\\NCc1c(F)cccc1F)c1cccnc1Oc1c(F)cccc1F", "> 50 µg/mL"),
    ("CCOc1ccccc1CN/C(=N\\O)c1cccnc1Oc1ccc(C(C)C)cc1", "38.6 µg/mL"),
    ("CCCCOc1ccc(-c2nc(CNC3CC(C)CC(C)(C)C3)co2)cc1 (stereo not drawn)", "20.9 µg/mL"),
    ("CCC(CC)N/C(=N\\O)c1cccnc1OCC1CCCCC1", "33.5 µg/mL"),
    ("CCOc1ccccc1CN/C(=N\\O)c1cccnc1Oc1ccc(CC)cc1", "> 50 µg/mL"),
    ("CCOc1ccc(-c2nc(CNC3CC(C)CC(C)(C)C3)co2)cc1 (stereo not drawn)", "44.1 µg/mL"),
    ("O/N=C(/c1cccnc1Oc1ccc2ccccc2c1)N1CCC2CCCCC2C1 (stereo not drawn)", "> 50 µg/mL"),
    ("O/N=C(/NC1CCCCC1)c1cccc2ccccc12", "> 50 µg/mL"),
    ("O/N=C(\\CNC1CCCCC1)c1ccccc1", "> 50 µg/mL"),
    ("CCCOc1ccc(-c2nc(CNC3CC(C)CC(C)(C)C3)co2)cc1 (stereo not drawn)", "15.9 µg/mL"),
    ("Clc1ccc(-c2nc(CN[C@]34C[C@H]5C[C@H](C[C@H](C5)C3)C4)co2)cc1", "> 50 µg/mL"),
    ("CCCCCC(C)NCc1coc(-c2cccs2)n1 (stereo not drawn)", "> 50 µg/mL"),
    ("CC1CC(N/C(=N\\O)c2cccnc2Oc2cc(Cl)ccc2Cl)CC(C)(C)C1 (stereo not drawn)", "30.9 µg/mL"),
    ("O/N=C(\\NC1CCCC1)c1ccc(Oc2cc(Cl)ccc2Cl)nc1", "28.8 µg/mL"),
    ("COc1ccc(-c2noc(C(C)C)n2)cc1", "> 50 µg/mL"),
    ("O/N=C(\\NC1CCCCC1)c1c(F)cccc1F", "> 50 µg/mL"),
    ("CCO/N=C/c1ccccc1-c1ccccc1", "> 50 µg/mL"),
    ("CN(/C(=N\\O)c1cccnc1OCc1cccc(F)c1)c1ccccc1", "> 50 µg/mL"),
    ("CCCCCC(C)NCc1coc(-c2ccc(Cl)cc2)n1 (stereo not drawn)", "17 µg/mL"),
    ("CC1CCC(N/C(=N\\O)c2cccnc2Oc2ccc(-n3cncn3)cc2)CC1 (stereo not drawn)", "> 50 µg/mL"),
    ("COc1cc(C)ccc1Oc1nc(C)ccc1/C(=N/O)NCC(C)C", "> 50 µg/mL"),
    ("COc1ccccc1Oc1ncccc1C(=N)NC1CCCCC1", "> 50 µg/mL"),
    ("O/N=C(\\NC1CCCCC1)c1ccsc1", "> 50 µg/mL"),
    ("COc1cccc(OC)c1CNCc1coc(-c2ccc(C(C)(C)C)cc2)n1", "43.2 µg/mL"),
    ("CCCCCC(C)NCc1coc(-c2cc(F)cc(F)c2)n1 (stereo not drawn)", "42 µg/mL"),
    ("CCCCCC(C)NC(=O)c1coc(-c2ccccc2)n1 (stereo not drawn)", "> 50 µg/mL"),
    ("O/N=C(\\NC1CCCCC1)c1cccc(F)c1", "> 50 µg/mL"),
    ("CCc1ccc(/C(=N/O)NC2CCCCC2)cc1", "> 50 µg/mL"),
    ("CCc1ccc(Oc2ncccc2/C(=N/O)NCCOC)cc1", "> 50 µg/mL"),
    ("COc1ccc(/C=N/OCC(C)C)cc1", "> 50 µg/mL"),
    ("CCCCCC(C)NCc1ccc(-c2ccccc2)cc1 (stereo not drawn)", "> 50 µg/mL"),
]
